# testSystem: Human immunodeficiency virus type 1 reverse transcriptase (Human immunodeficiency virus 1) (UniProt Q72547)
Rule: ID50 below 7 nM gives yes. Equal to or above 7 nM gives no.

Exercise: Regarding COC(c1nc(SC(C)C)[nH]c(=O)c1C)c1c(Cl)cccc1Cl (stereo unspecified) , kindly confirm whether its ID50 is beneath 7 nM.
Key: no

Exercise: Regarding Cc1c(C(C)c2c(F)cccc2F)nc(NC2CCCC2)[nH]c1=O (stereo unspecified) , kindly confirm whether its ID50 is beneath 7 nM.
Key: no

Exercise: Regarding CCC(C)Sc1nc(C(CC)c2c(F)cccc2F)c(C)c(=O)[nH]1 (stereo unspecified) , kindly confirm whether its ID50 is beneath 7 nM.
Key: yes

Exercise: Regarding CCC(C)Sc1nc(C(OC)c2c(F)cccc2F)c(C)c(=O)[nH]1 (stereo unspecified) , kindly confirm whether its ID50 is beneath 7 nM.
Key: yes

Exercise: Regarding CCC(c1nc(SC2CCCC2)[nH]c(=O)c1C)c1c(F)cccc1F (stereo unspecified) , kindly confirm whether its ID50 is beneath 7 nM.
Key: yes

Exercise: Regarding Cc1c(O)nc(SC(C)C)nc1C(C)c1c(F)cccc1F (stereo unspecified) , kindly confirm whether its ID50 is beneath 7 nM.
Key: yes

Exercise: Regarding COC(c1nc(NC(C)C)[nH]c(=O)c1C)c1c(F)cccc1F (stereo unspecified) , kindly confirm whether its ID50 is beneath 7 nM.
Key: no

Exercise: Regarding Cc1c([C@H](C)c2c(F)cccc2F)nc(SC2CCCC2)[nH]c1=O , kindly confirm whether its ID50 is beneath 7 nM.
Key: yes

Exercise: Regarding COC(c1nc(NC2CCCC2)[nH]c(=O)c1C)c1c(Cl)cccc1Cl (stereo unspecified) , kindly confirm whether its ID50 is beneath 7 nM.
Key: no

----------
# Tested on: Human immunodeficiency virus 1
# measurementDescription: Resistance index, ratio of ID50 for recombinant HIV-1 His-tagged reverse transcriptase p66/p51 Y181I mutant to ID50 for recombinant wild type HIV-1 reverse transcriptase His-tagged p66/p51
parameterMeasured: Ratio
Give the value as a plain number.

Exercise: Entry CCCNc1nc(C(OC)c2c(F)cccc2F)c(C)c(=O)[nH]1 (stereo unspecified) : reported Ratio = ?
Key: 42

Exercise: Entry Cc1c(C(C)c2c(F)cccc2F)nc(NC2CCCC2)[nH]c1=O (stereo unspecified) : reported Ratio = ?
Key: 57

Exercise: Entry COC(c1nc(NC(C)C)[nH]c(=O)c1C)c1c(Cl)cccc1Cl (stereo unspecified) : reported Ratio = ?
Key: 23

Exercise: Entry CCCN(C)c1nc([C@@H](OC)c2c(Cl)cccc2Cl)c(C)c(=O)[nH]1 : reported Ratio = ?
Key: 49

Exercise: Entry COC(c1nc(NC2CCCC2)[nH]c(=O)c1C)c1c(F)cccc1F (stereo unspecified) : reported Ratio = ?
Key: 57

Exercise: Entry COC(c1nc(SC2CCCC2)[nH]c(=O)c1C)c1c(F)cccc1F (stereo unspecified) : reported Ratio = ?
Key: 41

Exercise: Entry CCCN(C)c1nc(C(OC)c2c(F)cccc2F)c(C)c(=O)[nH]1 (stereo unspecified) : reported Ratio = ?
Key: 34

Exercise: Entry Cc1c([C@@H](C)c2c(F)cccc2F)nc(SC2CCCC2)[nH]c1=O : reported Ratio = ?
Key: 31

Exercise: Entry Cc1c([C@H](C)c2c(F)cccc2F)nc(SC2CCCC2)[nH]c1=O : reported Ratio = ?
Key: 30

Exercise: Entry CO[C@H](c1nc(SC(C)C)[nH]c(=O)c1C)c1c(F)cccc1Cl : reported Ratio = ?
Key: 75

Exercise: Entry COC(c1nc(NC2CCCC2)[nH]c(=O)c1C)c1c(F)cccc1Cl (stereo unspecified) : reported Ratio = ?
Key: 37

----------
# System: Human immunodeficiency virus 1
# measurementDescription: Resistance index, ratio of ID50 for recombinant HIV-1 His-tagged reverse transcriptase p66/p51 L100I mutant to ID50 for recombinant wild type HIV-1 reverse transcriptase His-tagged p66/p51
parameterMeasured: Ratio
Give the value as a plain number.

Exercise: Entry COC(c1nc(SC2CCCC2)[nH]c(=O)c1C)c1c(F)cccc1Cl (stereo unspecified) : reported Ratio = ?
Key: 329

Exercise: Entry CCCN(C)c1nc(C(OC)c2c(F)cccc2F)c(C)c(=O)[nH]1 (stereo unspecified) : reported Ratio = ?
Key: 40

Exercise: Entry CCC(C)Sc1nc(C(OC)c2c(F)cccc2Cl)c(C)c(=O)[nH]1 (stereo unspecified) : reported Ratio = ?
Key: 133

Exercise: Entry COC(c1nc(NC(C)C)[nH]c(=O)c1C)c1c(Cl)cccc1Cl (stereo unspecified) : reported Ratio = ?
Key: 11

Exercise: Entry Cc1c(C(C)c2c(F)cccc2F)nc(SC2CCCC2)[nH]c1=O (stereo unspecified) : reported Ratio = ?
Key: 60

Exercise: Entry CCC(C)Sc1nc(C(OC)c2c(F)cccc2F)c(C)c(=O)[nH]1 (stereo unspecified) : reported Ratio = ?
Key: 93

Exercise: Entry CCCN(C)c1nc(C(C)c2c(F)cccc2F)c(C)c(=O)[nH]1 (stereo unspecified) : reported Ratio = ?
Key: 6

Exercise: Entry COC(c1nc(NC2CCCC2)[nH]c(=O)c1C)c1c(F)cccc1Cl (stereo unspecified) : reported Ratio = ?
Key: 27

Exercise: Entry Cc1c(C(C)c2c(F)cccc2F)nc(NC(C)C)[nH]c1=O (stereo unspecified) : reported Ratio = ?
Key: 7

Exercise: Entry CCCN(C)c1nc([C@H](OC)c2c(Cl)cccc2Cl)c(C)c(=O)[nH]1 : reported Ratio = ?
Key: 19

----------
Exercise: for every item that follows, state its recorded Ratio EC50.
# Test system: Human immunodeficiency virus 1
# measurementDescription: Resistance index, ratio of EC50 for HIV-1 harboring reverse transcriptase Y181C mutant to EC50 for wild type HIV-1 NL4-3
# Assay type: functional
Give the value as a plain number.

Exercise: Entry CCC(C)Sc1nc(C(OC)c2c(Cl)cccc2Cl)c(C)c(=O)[nH]1 (stereo unspecified) : reported Ratio EC50 = ?
Key: 3111

Exercise: Entry COC(c1nc(NC(C)C)[nH]c(=O)c1C)c1c(F)cccc1F (stereo unspecified) : reported Ratio EC50 = ?
Key: 10

Exercise: Entry CCC(C)Sc1nc(C(OC)c2c(F)cccc2Cl)c(C)c(=O)[nH]1 (stereo unspecified) : reported Ratio EC50 = ?
Key: 135

Exercise: Entry CCC(c1nc(SC2CCCC2)[nH]c(=O)c1C)c1c(F)cccc1F (stereo unspecified) : reported Ratio EC50 = ?
Key: 100

Exercise: Entry CCCNc1nc(C(C)c2c(F)cccc2F)c(C)c(=O)[nH]1 (stereo unspecified) : reported Ratio EC50 = ?
Key: 20

Exercise: Entry Cc1c([C@@H](C)c2c(F)cccc2F)nc(SC2CCCC2)[nH]c1=O : reported Ratio EC50 = ?
Key: 116

Exercise: Entry COC(c1nc(SC2CCCC2)[nH]c(=O)c1C)c1c(F)cccc1Cl (stereo unspecified) : reported Ratio EC50 = ?
Key: 229

Exercise: Entry CCCN(C)c1nc(C(OC)c2c(F)cccc2Cl)c(C)c(=O)[nH]1 (stereo unspecified) : reported Ratio EC50 = ?
Key: 24

Exercise: Entry CCCN(C)c1nc(C(C)c2c(F)cccc2F)c(C)c(=O)[nH]1 (stereo unspecified) : reported Ratio EC50 = ?
Key: 9

Exercise: Entry COC(c1nc(SC(C)C)[nH]c(=O)c1C)c1c(F)cccc1F (stereo unspecified) : reported Ratio EC50 = ?
Key: 33

----------
# measurementDescription: Therapeutic index, ratio of CC50 for human MT4 cells to EC50 for HIV-1 NL4-3 infected in human MT4 cells
# Assay type: toxicity, cell-based
# details: read-out: Ratio CC50/EC50
Exercise: for every item that follows, state its recorded selectivity ratio.
Give the value as a plain number.

Exercise: Entry Cc1c([C@H](C)c2c(F)cccc2F)nc(SC2CCCC2)[nH]c1=O : reported selectivity ratio = ?
Key: 185000

Exercise: Entry Cc1cc(C#N)cc(C)c1Oc1nc(Nc2ccc(C#N)cc2)nc(N)c1Br : reported selectivity ratio = ?
Key: 7000

Exercise: Entry CCCNc1nc(C(C)c2c(F)cccc2F)c(C)c(=O)[nH]1 (configuration not stated) : reported selectivity ratio = ?
Key: 11700

Exercise: Entry Cc1c([C@@H](C)c2c(F)cccc2F)nc(SC2CCCC2)[nH]c1=O : reported selectivity ratio = ?
Key: 3240

Exercise: Entry CCCNc1nc(C(OC)c2c(F)cccc2Cl)c(C)c(=O)[nH]1 (configuration not stated) : reported selectivity ratio = ?
Key: 8600

Exercise: Entry CCC(C)Sc1nc(C(OC)c2c(F)cccc2F)c(C)c(=O)[nH]1 (configuration not stated) : reported selectivity ratio = ?
Key: 3020

Exercise: Entry COC(c1nc(SC2CCCC2)[nH]c(=O)c1C)c1c(F)cccc1Cl (configuration not stated) : reported selectivity ratio = ?
Key: 52600

Exercise: Entry COC(c1nc(NC2CCCC2)[nH]c(=O)c1C)c1c(F)cccc1Cl (configuration not stated) : reported selectivity ratio = ?
Key: 10000

Exercise: Entry CCCN(C)c1nc([C@@H](OC)c2c(Cl)cccc2Cl)c(C)c(=O)[nH]1 : reported selectivity ratio = ?
Key: 3010

Exercise: Entry Cc1c(C(C)c2c(F)cccc2F)nc(NC2CCCC2)[nH]c1=O (configuration not stated) : reported selectivity ratio = ?
Key: 3600

FYI, the data here is from ChEMBL document CHEMBL4371047.
